Test system: BJ
Assay: Cytotoxicity against human BJ cell assessed as decrease in resazurin signal incubated with resazurin for 3 hrs by M2 reader analysis
Type: toxicity, cell-based
Set-up: scale not given: the % may be the effect or the level left
Task for the reader: assign each of the following molecules its reported Activity.

Dear colleague, I am looking for the recorded Activity of the following molecule: Fc1nc(NCc2ccco2)c2nc[nH]c2n1
> 20%

Dear colleague, I am looking for the recorded Activity of the following molecule: Clc1nc(NCc2ccco2)c2[nH]cnc2n1
> 20%

Dear colleague, I am looking for the recorded Activity of the following molecule: c1ccc(CNc2nc3c(NCc4ccco4)ncnc3[nH]2)cc1
> 20%

Dear colleague, I am looking for the recorded Activity of the following molecule: c1ccc(Nc2nc3c(NCc4ccco4)ncnc3[nH]2)cc1
> 20%

====

Tested on: HaCaT
Experiment: Cytotoxicity against human HaCaT cell assessed as decrease in resazurin signal incubated with resazurin for 3 hrs by M2 reader analysis
Type: toxicity, cell-based
Set-up: scale not given: the % may be the effect or the level left
Task for the reader: assign each of the following molecules its reported Activity.

Dear colleague, I am looking for the recorded Activity of the following molecule: c1ccc(CNc2nc3c(NCc4ccco4)ncnc3[nH]2)cc1
> 20%

Dear colleague, I am looking for the recorded Activity of the following molecule: Fc1nc(NCc2ccco2)c2nc[nH]c2n1
> 20%

Dear colleague, I am looking for the recorded Activity of the following molecule: c1ccc(Nc2nc3c(NCc4ccco4)ncnc3[nH]2)cc1
> 20%

Dear colleague, I am looking for the recorded Activity of the following molecule: Clc1nc(NCc2ccco2)c2[nH]cnc2n1
> 20%

====

System: GM04663
Test: Corrector activity at aberrant splicing of ELP1 gene […] mutant (unknown origin) in human GM04663 cells assessed as increase in exon 20 inclusion at 10 uM by Capillary electrophoresis
Assay type: cell-based
Calls of active or inactive are those of the source. No cut-off for these calls is given here.
Pick one and only one: active, inactive

Record request — test call for CN(C)CCNc1nc2c(NCc3ccco3)ncnc2[nH]1
active

Record request — test call for c1coc(CNc2ncnc3[nH]c(NCCCN4CCOCC4)nc23)c1
active

Record request — test call for Nc1nc2c(NCc3ccco3)nc(Cl)nc2[nH]1
inactive

Record request — test call for Ic1nc2c(NCc3ccco3)ncnc2[nH]1
inactive

Record request — test call for O=c1[nH]c2ncnc(NCc3ccco3)c2[nH]1
active

Record request — test call for NCCNc1nc2c(NCc3ccco3)ncnc2[nH]1
active

Record request — test call for Clc1nc(NCc2ccco2)c2nc(Cl)[nH]c2n1
active

Record request — test call for Cn1cnc2ncnc(NCc3ccco3)c21
active

Record request — test call for Fc1nc(NCc2ccco2)c2nc[nH]c2n1
active

Record request — test call for CCCn1cnc2ncnc(NCc3ccco3)c21
inactive

Record request — test call for CCCOc1nc2c(NCc3ccco3)ncnc2[nH]1
active

Record request — test call for Nc1nc2c(NCc3ccco3)ncnc2[nH]1
active

Record request — test call for Clc1nc(NCc2ccco2)c2[nH]cnc2n1
active

Record request — test call for CSc1nc2c(NCc3ccco3)ncnc2[nH]1
active

Record request — test call for c1coc(CNc2ncnc3[nH]cnc23)c1
active
